# credit: ChEMBL document CHEMBL1139311

Readings of IC50 for the listed compounds
- Target: Prostaglandin G/H synthase 2 (Mus musculus, UniProt Q05769)
- Sequence (Q05769 whole entry): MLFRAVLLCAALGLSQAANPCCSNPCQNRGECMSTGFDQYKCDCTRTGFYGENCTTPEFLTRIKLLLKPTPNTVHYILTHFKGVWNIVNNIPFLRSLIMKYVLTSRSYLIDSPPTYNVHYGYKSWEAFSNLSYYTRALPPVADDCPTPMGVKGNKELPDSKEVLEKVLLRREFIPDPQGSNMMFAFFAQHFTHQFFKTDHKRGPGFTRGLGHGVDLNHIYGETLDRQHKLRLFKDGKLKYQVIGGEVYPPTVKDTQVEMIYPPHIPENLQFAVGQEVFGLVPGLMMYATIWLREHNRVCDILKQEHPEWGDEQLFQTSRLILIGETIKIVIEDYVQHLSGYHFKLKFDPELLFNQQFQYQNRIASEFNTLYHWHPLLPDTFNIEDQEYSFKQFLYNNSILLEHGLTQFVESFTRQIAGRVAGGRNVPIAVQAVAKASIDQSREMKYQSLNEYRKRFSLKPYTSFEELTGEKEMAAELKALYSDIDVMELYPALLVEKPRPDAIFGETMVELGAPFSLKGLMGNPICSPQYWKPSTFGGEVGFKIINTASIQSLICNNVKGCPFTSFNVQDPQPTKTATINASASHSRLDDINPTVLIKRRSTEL
- Test summary: Inhibition of COX2-mediated PGE2 production in LPS-stimulated mouse RAW264.7 cells by ELISA

>  <Record smiles>
COc1ccc(-c2cc(=O)c3cc(Oc4ccc5c(=O)cc(-c6ccc(OC)cc6OC)oc5c4)ccc3o2)cc1

>  <Measured metric>
IC50

>  <Recorded measurement>
> 50 µM

$$$$
>  <Record smiles>
O=c1cc(-c2ccc(O)cc2O)oc2cc(Oc3ccc4oc(-c5ccc(O)cc5O)cc(=O)c4c3)ccc12

>  <Measured metric>
IC50

>  <Recorded measurement>
10 µM

$$$$
>  <Record smiles>
COc1ccc(-c2cc(=O)c3ccc(Oc4ccc5oc(-c6ccc(OC)cc6OC)cc(=O)c5c4)cc3o2)cc1

>  <Measured metric>
IC50

>  <Recorded measurement>
> 50 µM

$$$$

Now for another entry.
Inquiry: Can you share its IC50? I mean this compound: O=c1cc(-c2ccc(O)cc2)oc2cc(Oc3ccc4oc(-c5ccc(O)cc5O)cc(=O)c4c3)ccc12
Reply text: > 50 µM
